# Tested on: HEK-293T
# experiment: Multiplex assay against HEK293T
# Type: toxicity, cell-based
# protocol_conditions: human, 24 h, 10 µM, compound concentration 10 uM, replicate 2
measured_quantity: Population Membrane Permeable-Phenotype (%)
Give a bare numeral; the unit % is implied.

For orientation, consider the following solved cases.
{"molecular_string": "CCN1CCN(c2ccc(Nc3cc(N(C)C(=O)Nc4c(Cl)c(OC)cc(OC)c4Cl)ncn3)cc2)CC1", "unit_annotation": "%", "result": 11}
{"molecular_string": "Cn1nc(C(=O)NCc2ccc(C(=O)O)cc2)cc1-c1ccc2[nH]ccc2c1", "unit_annotation": "%", "result": 4}
{"molecular_string": "CCN1CCN(Cc2ccc(Nc3ncc(F)c(-c4cc(F)c5nc(C)n(C(C)C)c5c4)n3)nc2)CC1.CS(=O)(=O)O", "unit_annotation": "%", "result": 3}

Ask: Specify measured Population Membrane Permeable-Phenotype (%) for CCCS(=O)(=O)Nc1ccc(F)c(C(=O)c2c[nH]c3ncc(Cl)cc23)c1F .
Reply: 3

###

Population Healthy Nuclei (%) reference
# Tested on: Fibroblast
# experiment: Multiplex assay against human fibroblast
# Format: toxicity, cell-based
# protocol_conditions: 48 h, 1 µM, compound concentration 1 uM, replicate 2
Quick note: give the figure in %, leave out the unit.

{"molecular_string": "CCCS(=O)(=O)c1nc(NC2CC2)cc(-c2ccc3c(ccn3C3CC(C)(C)NC(C)(C)C3)c2)n1", "target": "Fibroblast", "result": 49}
{"molecular_string": "C=C1/C(=C\\C=C2/CCC[C@]3(C)[C@@H]([C@H](C)/C=C/[C@H](C)C(C)C)CC[C@@H]23)C[C@@H](O)C[C@@H]1O", "target": "Fibroblast", "result": 72}
{"molecular_string": "CCCn1c(=O)c2[nH]c(-c3cnn(Cc4cccc(C(F)(F)F)c4)c3)nc2n(CC)c1=O", "target": "Fibroblast", "result": 76}
{"molecular_string": "CCn1c(=O)c(-c2ccc(-c3cncs3)cc2Cl)cc2cnc(Nc3ccc(N4CCN(C)CC4)cc3)nc21", "target": "Fibroblast", "result": 75}
{"molecular_string": "O=C(Nc1ccc(-n2nc(-c3cccnc3)cc2C(F)(F)F)cn1)c1ccc(-c2ccccc2)c(F)c1", "target": "Fibroblast", "result": 72}

Ask: Supply recorded Population Healthy Nuclei (%) for Cc1cn(-c2cc(NC(=O)c3ccc(C)c(Nc4nccc(-c5cccnc5)n4)c3)cc(C(F)(F)F)c2)cn1 here.
Reply: 79

Ask: Note Population Healthy Nuclei (%) for the compound shown: O=C(Cc1ccc(-c2ccc(OCCN3CCOCC3)cc2)cn1)NCc1ccccc1
Reply: 59

###

# Test system: U2OS
# experiment: Multiplex assay against U2OS
# Assay type: toxicity, cell-based
# protocol_conditions: human, 24 h, 1 µM, compound concentration 1 uM, replicate 2
measured_quantity: Population Apoptotic (%)

Known results for compounds:
{"compound": "CCc1cccc(CC)c1NC(=O)c1nn(C)c2c1CCc1cnc(Nc3ccc(C(=O)NC4CCN(C)CC4)cc3OC(F)(F)F)nc1-2", "target": "U2OS", "Population Apoptotic (%)": "37%"}
{"compound": "C=C1/C(=C\\C=C2/CCC[C@]3(C)[C@@H]([C@H](C)/C=C/[C@H](C)C(C)C)CC[C@@H]23)C[C@@H](O)C[C@@H]1O", "target": "U2OS", "Population Apoptotic (%)": "42%"}
{"compound": "COC(=N)c1nc2ccc3ncnc(Nc4ccc(OC)cc4F)c3c2s1", "target": "U2OS", "Population Apoptotic (%)": "44%"}
{"compound": "CNC(=O)c1ccc(Nc2nc(OC3CCCC3)c3c(-c4ccc5nc(C)oc5c4)c[nH]c3n2)c(OC)c1", "target": "U2OS", "Population Apoptotic (%)": "60%"}
{"compound": "CCOc1cc(C(=O)N2CCC(N3CCN(C)CC3)CC2)ccc1Nc1ncc2c(n1)N(C1CCCC1)c1ccccc1C(=O)N2C", "target": "U2OS", "Population Apoptotic (%)": "22%"}

Ask: # return recorded Population Apoptotic (%) for entry Cn1nc(C(F)(F)F)cc1-c1cnc(N2CCc3cc(S(=O)(=O)Nc4c(F)cc(Cl)cc4F)cc(N4CCCC4=O)c32)nc1
Reply: 42%

Ask: Write down Population Apoptotic (%) measured for item CCN1CCN(c2ccc(Nc3cc(N(C)C(=O)Nc4c(Cl)c(OC)cc(OC)c4Cl)ncn3)cc2)CC1
Reply: 70%

Ask: Tell me Population Apoptotic (%) reported for CN(C)C(=O)C(CCN1CCC(O)(c2ccc(Cl)cc2)CC1)(c1ccccc1)c1ccccc1.Cl [LOPERAMIDE HYDROCHLORIDE]
Reply: 53%

###

# System: HEK-293T
# experiment: Multiplex assay against HEK293T
# Type: toxicity, cell-based
# protocol_conditions: human, 24 h, 10 µM, compound concentration 10 uM, replicate 2
measured_quantity: Population Mitotic Cells (%)
Report the figure in % without appending any unit label.

Ask: Give Population Mitotic Cells (%) for this entry on HEK-293T: O=C(Nc1cccnn1)N1CCC(=Cc2cccc(Oc3ccc(C(F)(F)F)cn3)c2)CC1
Reply: 97

Ask: Under HEK-293T: report Population Mitotic Cells (%) of C=CCn1c(=O)c2cnc(Nc3ccc(N4CCN(C)CC4)cc3)nc2n1-c1cccc(C(C)(C)O)n1 .
Reply: 79

Ask: State Population Mitotic Cells (%) on HEK-293T. Entry: Cl.Oc1ccc2c3c1O[C@H]1c4[nH]c5c(c4C[C@@]4(O)[C@@H](C2)N(CC2CC2)CC[C@]314)C[C@@]1(O)[C@H]2Cc3ccc(O)c4c3[C@@]1(CCN2CC1CC1)[C@H]5O4
Reply: 88

Ask: // output Population Mitotic Cells (%); input COCC(=O)NC/C=C/c1ccc2ncnc(Nc3ccc(Oc4ccc(C)nc4)c(C)c3)c2c1 ; system HEK-293T
Reply: 29

###

Quick list: Population Mitochondria Different-Phenotype (%) per entry.
# Test system: HEK-293T
# experiment: Multiplex assay against HEK293T
# Assay type: toxicity, cell-based
# protocol_conditions: human, 48 h, 10 µM, compound concentration 10 uM, replicate 2

{"molecule": "CN1CCC(=C2c3ccccc3CC(=O)c3sccc32)CC1.O=C(O)/C=C/C(=O)O [KETOTIFEN FUMARATE]", "result": "86%"}
{"molecule": "Cl.O=c1c2cccn2c2ccccc2n1CCCN1CCC(c2ccc(Cl)cc2)CC1", "result": "98%"}
{"molecule": "CCOc1cc(C(=O)N2CCC(N3CCN(C)CC3)CC2)ccc1Nc1ncc2c(n1)N(C1CCCC1)c1ccccc1C(=O)N2C", "result": "100%"}
{"molecule": "CCCS(=O)(=O)c1nc(NC2CC2)cc(-c2ccc3c(ccn3C3CC(C)(C)NC(C)(C)C3)c2)n1", "result": "65%"}
{"molecule": "O=C1NC(=O)C(c2cnc3ccccn23)=C1c1cn2c3c(cc(F)cc13)CN(C(=O)N1CCCCC1)CC2 [LY-2090314]", "result": "95%"}

Ask: Provide only the value of recorded Population Mitochondria Different-Phenotype (%) for Cc1cn(-c2cc(NC(=O)c3ccc(C)c(Nc4nccc(-c5cccnc5)n4)c3)cc(C(F)(F)F)c2)cn1 [NILOTINIB]
Reply: 61%

Ask: For O=C(Nc1ccc(-c2ccnc(Nc3ccc(N4CCOCC4)cc3)n2)cc1)[C@@H]1CCCN1 , write its Population Mitochondria Different-Phenotype (%).
Reply: 38%

Ask: Annotate the molecule COCC(=O)NC/C=C/c1ccc2ncnc(Nc3ccc(Oc4ccc(C)nc4)c(C)c3)c2c1 [CP-724714] with its measured Population Mitochondria Different-Phenotype (%).
Reply: 90%

Ask: Supply measured Population Mitochondria Different-Phenotype (%) of Cc1cc(C)c(S(=O)(=O)N(Cc2ccc(-c3cccc(S(C)(=O)=O)c3)cc2)Cc2ccc(C(F)(F)F)o2)c(C)c1 in your reply.
Reply: 3%

Ask: Give the value of Population Mitochondria Different-Phenotype (%) reported for the following: CN1CCN(C(=O)C(C)(C)c2ccc(C(=O)Nc3cn4cc(-c5ccncc5)ccc4n3)cc2)CC1 [T3-CLK]
Reply: 79%

Ask: Give the value of Population Mitochondria Different-Phenotype (%) reported for the following: O=C(Nc1ccc(Cl)cc1)Nc1cccc(-c2cccc(N3CCCC3)n2)c1
Reply: 6%

Ask: Using known records, supply Population Mitochondria Different-Phenotype (%) for Cc1ccc(C(=O)Nc2cccc(C(F)(F)F)c2)cc1Nc1nc(-c2cccnc2)nc2c1cnn2C
Reply: 93%

Ask: Please list Population Mitochondria Different-Phenotype (%) recorded for the molecule CCOC(=O)c1c(C)[nH]c2ccc3c(c12)CN1CCc2cc(OC)ccc2C1O3 (stereo unspecified)
Reply: 95%

Ask: Return reported Population Mitochondria Different-Phenotype (%). Input molecule: C=C1/C(=C\C=C2/CCC[C@]3(C)[C@@H]([C@H](C)/C=C/[C@H](C)C(C)C)CC[C@@H]23)C[C@@H](O)C[C@@H]1O [DOXERCALCIFEROL]
Reply: 4%

Ask: Provide measured Population Mitochondria Different-Phenotype (%) value, entry: COc1cc(N2CCN(C)CC2)ccc1Nc1ncc2c(n1)N(C)c1ccccc1C(=O)N2C
Reply: 96%

Ask: Provide only the value of recorded Population Mitochondria Different-Phenotype (%) for CCc1cccc(CC)c1NC(=O)c1nn(C)c2c1CCc1cnc(Nc3ccc(C(=O)NC4CCN(C)CC4)cc3OC(F)(F)F)nc1-2
Reply: 93%
